Origin of measurements: paper doi:10.1101/2024.08.19.608619

Recorded measurements of papp_a_to_b_mean, one per entry
assay: Permeability Papp (AB) MDR1/MDCKII; conditions: In vitro MDR1-MDCKII permeability, A to B, no inhibitor
# unit: ×10⁻⁶ cm/s | format: bare number

compound	measured metric	units symbol	experimental result
CC(C)[C@H](Nc1ncnc2[nH]c(-c3cnn(CC(N)=O)c3)cc12)c1ccc2c(n1)OCCO2	papp_a_to_b_mean	×10⁻⁶ cm/s	1.27

Exam item: Report papp_a_to_b_mean for CC(C)[C@H](Nc1ncnc2[nH]c(-c3cnn(CC(=O)N(C)C)c3)cc12)c1ccc2c(c1)OCCO2 (single isomer, unassigned) [ASAP-0013833]
Marked response: 2.05

Exam item: Report papp_a_to_b_mean for CCNC(=O)c1cc2c(N[C@H](c3ccc4c(c3)OCCO4)C(C)C)ncnc2[nH]1 (single isomer, unassigned) [ASAP-0013827]
Marked response: 2.9

* * *

Recorded measurements of perc_recovery_a_to_b_mean, one per entry
assay: Permeability Papp (AB) MDR1/MDCKII; conditions: In vitro MDR1-MDCKII permeability, recovery A to B, no inhibitor
Remember to follow the number with its unit.

Exam item: Report perc_recovery_a_to_b_mean for CC(C)[C@@H](Nc1ncnc2[nH]c(-c3cncc(S(C)(=O)=O)c3)cc12)c1ccc2c(c1)S(=O)(=O)CCC2
Marked response: 66.6%

Exam item: Report perc_recovery_a_to_b_mean for CC(C)[C@@H](Nc1ncnc2[nH]c(-c3cnn(C)c3C#N)cc12)c1ccc2c(c1)S(=O)(=O)CCC2 (single isomer, unassigned)
Marked response: 82.5%

Exam item: Report perc_recovery_a_to_b_mean for CC(C)(C)[C@H](Nc1ncnc2[nH]c(-c3cnn(CC(N)=O)c3)cc12)c1ccc2c(c1)OCCO2 (single isomer, unassigned) [ASAP-0012332]
Marked response: 76.5%

Exam item: Report perc_recovery_a_to_b_mean for CC(C)[C@H](Nc1ncnc2[nH]c(-c3cnn(CC(N)=O)c3)cc12)c1ccc2c(c1)OCCO2
Marked response: 87.8%

* * *

Recorded measurements of perc_min_measured, one per entry
tested on: SARS-CoV-2, isolate USA-WA1/2020; assay: microbe, parasite or virus in culture; format: cell-based; settings: HeLa-ACE2 SARS-CoV-2 antiviral effect without P-gp inhibitor; minimum measured response of dose series
# unit: % | format: bare number

Exam item: Report perc_min_measured for CNC(=O)c1cc2c(N[C@@H](c3ccc4c(c3)OCCO4)C(C)C)ncnc2[nH]1 [ASAP-0008348]
Marked response: 64.264

Exam item: Report perc_min_measured for CC(C)[C@@H](Nc1ncnc2[nH]c(-c3cnn(C)c3C#N)cc12)c1ccc2c(n1)OCCO2 [ASAP-0010716]
Marked response: 1.653

Exam item: Report perc_min_measured for CC(C)[C@@H](Nc1ncnc2[nH]c(-c3cnn(C)c3C#N)cc12)c1ccc2c(c1)S(=O)(=O)CCC2 (single isomer, unassigned) [ASAP-0011147]
Marked response: 4.545

Exam item: Report perc_min_measured for CCNC(=O)c1cc2c(N[C@@H](c3ccc4c(c3)S(=O)(=O)CCO4)C(C)C)ncnc2[nH]1 (racemic) [ASAP-0012317]
Marked response: 79.377

* * *

test: Hepatic microsomal stability, HLM; format: in vitro ADME, human; conditions: In vitro human liver microsomal stability
measured metric: perc_remaining
Remember to follow the number with its unit.

The following compounds have reported results that may help.
compound	experimental result
CC(C)[C@H](Nc1ncnc2[nH]c(-c3cnn(C)c3C#N)cc12)c1ccc2c(c1)S(=O)(=O)CCC2 (single isomer, unassigned)	0.0%
CC(C)[C@H](Nc1ncnc2[nH]c(C(=O)N[C@@H]3CCN(C)C3)cc12)c1ccc2c(c1)S(=O)(=O)CCC2	98.0%
CC(C)[C@@H](Nc1ncnc2[nH]c(-c3cnn(CC(N)=O)c3)cc12)c1ccc2c(c1)S(=O)(=O)CCC2	15.0%

Exam item: Report perc_remaining for CCNC(=O)c1cc2c(N[C@H](c3ccc4c(c3)S(=O)(=O)CCC4)C(C)C)ncnc2[nH]1 (racemic) [ASAP-0008711]
Marked response: 15.0%

* * *

experiment: Permeability Papp (AB) MDR1/MDCKII; conditions: In vitro MDR1-MDCKII permeability, A to B, mean
measured metric: papp_a_to_b_mean (×10⁻⁶ cm/s)
# unit: ×10⁻⁶ cm/s | format: bare number

compound	measured metric	experimental result
CNCc1cc(-c2cc3c(N[C@@H](c4ccc5c(c4)S(=O)(=O)CCC5)C(C)C)ncnc3[nH]2)co1 [ASAP-0010745]	papp_a_to_b_mean	1.61
CNCc1cc(-c2cc3c(N[C@@H](c4ccc5c(c4)S(=O)(=O)NCC5)C(C)C)ncnc3[nH]2)co1	papp_a_to_b_mean	1.2

Exam item: Report papp_a_to_b_mean for CC(C)[C@H](Nc1ncnc2[nH]ccc12)c1ccc2c(c1)NC(=O)CO2
Marked response: 3.4

Exam item: Report papp_a_to_b_mean for CC(C)[C@H](CO)Nc1ncnc2[nH]ccc12
Marked response: 13.1

* * *

experiment: LogD; details: pH 7.4; In vitro LogD
Given measured logd, output Fulfilled if it is greater than or equal to 2 and Not fulfilled if not.

The following molecules have reported results that may help.
molecule	class label
Cc1nn(C)cc1-c1cc2c(N[C@H](c3ccc4c(c3)S(=O)(=O)CCC4)C(C)C)ncnc2[nH]1 (single isomer, unassigned)	Fulfilled
O=C(Nc1ccccc1)Nc1ccc(C(=O)NC2c3cccc(O)c3CC2C(=O)O)cc1 (stereo not drawn)	Not fulfilled
CC(C)[C@@H](Nc1ncnc2[nH]c(-c3cnn(C)c3C#N)cc12)c1ccc2c(c1)OCCO2 [ASAP-0011033]	Fulfilled

Exam item: Kindly determine if logd recorded for CC(C)[C@@H](Nc1ncnc2[nH]c(C(=O)N[C@H]3CCN(C)C3)cc12)c1ccc2c(c1)S(=O)(=O)CCC2 (single isomer, unassigned) is above or exactly 2.
Marked response: Not fulfilled

Exam item: Kindly determine if logd recorded for CC(C)[C@@H](Nc1ncnc2[nH]c(-c3cnn(CC(N)=O)c3)cc12)c1ccc2c(n1)OCCO2 [ASAP-0008646] is above or exactly 2.
Marked response: Fulfilled

Exam item: Kindly determine if logd recorded for CC(C)[C@@H](Nc1ncnc2[nH]c(-c3cnn(C)c3)cc12)c1ccc2c(c1)S(=O)(=O)NCC2 is above or exactly 2.
Marked response: Fulfilled

Exam item: Kindly determine if logd recorded for CNC(=O)Cn1cc(-c2cc3c(N[C@H](c4ccc5c(c4)S(=O)(=O)CCC5)C(C)C)ncnc3[nH]2)cn1 (single isomer, unassigned) is above or exactly 2.
Marked response: Fulfilled

Exam item: Kindly determine if logd recorded for COc1ccc([C@H](Cc2nnn[nH]2)NC(=O)c2ncnc3[nH]ccc23)cc1 is above or exactly 2.
Marked response: Not fulfilled

Exam item: Kindly determine if logd recorded for CCNC(=O)c1cc2c(N[C@H](c3ccc4c(c3)S(=O)(=O)CCC4)C(C)C)ncnc2[nH]1 [ASAP-0012325] is above or exactly 2.
Marked response: Fulfilled

Exam item: Kindly determine if logd recorded for CC(C)[C@@H](Nc1ncnc2[nH]c(-c3ccc4nnn(C)c4c3)cc12)c1ccc2c(c1)S(=O)(=O)CCC2 is above or exactly 2.
Marked response: Fulfilled

Exam item: Kindly determine if logd recorded for CC(C)[C@@H](Nc1ncnc2[nH]cc(C(=O)NC3CC3)c12)c1ccc2c(c1)S(=O)(=O)CCC2 is above or exactly 2.
Marked response: Fulfilled

Exam item: Kindly determine if logd recorded for CC(C)[C@H](Nc1ncnc2[nH]c(-c3cnn(C)c3C#N)cc12)c1ccc2c(n1)NC(=O)CO2 (single isomer, unassigned) is above or exactly 2.
Marked response: Fulfilled

* * *

test: Hepatic microsomal stability, MLM; type: in vitro ADME; conditions: In vitro mouse liver microsomal stability; no cofactor
measured metric: perc_remaining_no_cofactor (%)
# unit: % | format: bare number

The following compounds have reported results that may help.
compound	perc_remaining_no_cofactor [%]
CNC(=O)c1c[nH]c2ncnc(N[C@@H](c3ccc4c(c3)OCCO4)C(C)C)c12	95.0
CC(C)[C@H](Nc1ncnc2[nH]ccc12)c1ccc2c(c1)NC(=O)CO2	89.0
Cn1ncc(-c2cc3c(N[C@@H](c4ccc5c(c4)OCCO5)C(C)(C)C)ncnc3[nH]2)c1C#N (racemic)	100.0
CC(C)[C@@H](Nc1ncnc2[nH]c(-c3cnn(CCC(N)=O)c3)cc12)c1ccc2c(c1)OCCO2	106.0
CNCc1cc(-c2cc3c(N[C@@H](c4ccc5c(c4)S(=O)(=O)CCC5)C(C)C)ncnc3[nH]2)co1	108.0

Switching to the query record.
Exam item: Report perc_remaining_no_cofactor for CC(C)C(Nc1ncnc2[nH]ccc12)c1ccc2c(c1)S(=O)(=O)CCC2 (stereo not drawn)
Marked response: 103.0
